measured.on: T1, recombinant hCTLA-4-mFc (human CTLA-4 extracellular domain with a C-terminal Fc portion of mouse IgG2a) (human)
T1 construct: also called dimeric CTLA-4 protein
assay.name: competition ELISA, 400 pM hCTLA-4-mFc on plate-coated hB7-2-hIgG1-6His

{"binder": "H1H20375N (antibody, human IgG1, V domains shown, here with human IgG1 Fc (H1H)) VH: QLQLQESGPGLVKPSETLSFTCTVSGGSISSNYYYWGWVRQSPGKGLEWIGSIYHTGNAYDNPSLKSRVTISVDTSKNQFSLNLNSVTAADTAIYYCARHHSSSSWWYFDVWGRGTLVIVSS VL: EIVLTQSPDTLSLSPGERATLSCRASQTVSNSHLAWYQQKPGQAPRLLIYGTSSRATGIPDRFSGSGSGTDFSLTIIRLEPDDFAVYFCQQHESSPPTFGQGAKLEIK", "% Blockade (%)": 29}
{"binder": "H1H19312P (antibody, human IgG1, V domains shown) VH: QVQLQESGPGLVKPSETLSLTCTVSGGSISSYHWSWIRQPLGKGLEWIGYIYYSGSTNYNPSLKSRVTISVDTSKNQFSLKLSSVTAADTAVYYCARGGSSIWPFDYWGQGTLVTVSS VL: DIQMTQSPSTLSASVGDRVTITCRASQSISSWLAWYQQKSGKAPKLLISKASTLESGVPSRFSGSGSGTEFTLTISSLQPDDFATYYCQQYNIYSWTFGQGTKVEIK", "% Blockade (%)": 99}
{"binder": "H1H19303P (antibody, human IgG1, kappa, V domains shown, also called REGN4659) VH: EVQLVESGGGLVQPGGSLRLSCAASGFTFSNYEMSWVRQAPGKGLEWVSSIRTSGTTKYYADSMKGRFTISRDNAKNSLYLQMNSLRAEDTAVYYCAGGGTFLHYWGQGTLVTVSS VL: DIQMTQSPSSVSASVGDRVTITCRASQGIASYLAWYQQKPGKAPKLLIYAASSLQTGVPSRFSGSGYGTDFTLTISSLQPEDFATYYCQQAKSFPMYTFGQGTKLEIKR", "% Blockade (%)": 97}
{"binder": "H1H19291P (antibody, human IgG1, V domains shown) VH: QVQLVESGGGVVQPGRSLRLSCAASGFTFSTYGMHWVRQAPGKGLEWVTVIWYDGNNKYYADSVKGRFTISRDNSKNTLYLQMNNLRAEDTALYYCARGGGRLSYYHDYWGQGTLVTVSS VL: DIQMTQSPSSLSASVGDRVTITCRASQSISTFLNWYQQKPGKAPNLLIYGTSSLQSGVPSRFSGSGSGTDFTLTISSLQPEDFAAYYCQQTYSTPFTFGPGTKVDIK", "% Blockade (%)": 99}
{"binder": "H1H19264P (antibody, human IgG1, V domains shown) VH: QVQLVQSGAEVKKPGASVKVSCKASDYTFTSYGISWVRQAPGQGLEWMGWISVYNGNINYAQKFKGRVTMTTDTSTSTAYMELRSLRSDDMAVYYCARVTQFGMDVWGQGTTVTVSS VL: DIQMTQSPSSLSASVGDRVTITCRASQSISSNLNWYQQNPGKAPKLLIYTTSSLQGGVPSRFSGSGSGTDFTLTISSLQPEDFATYYCQQSFRTPFTFGPGTKVDIK", "% Blockade (%)": 43}
